# Subject of test: HLA-A*0101 (Homo sapiens, UniProt P04439, A114D/A174V/A182V/D101N/D185E/E176A/E190D/L180R/Q94H/R68K/S129P/T187R/V100A/V91M/W191G)
# Assay type: binding
Documented A*0101 (binding information) across a set of sequences
Lab note: record just the number, no unit beside it.

LPSENERGY    0.6700
FQDEENIGIY    1.1000
PSDGKCNLY    0.5400

In the following, a different sequence is considered.
Given the sequence HPSDGKCNLY , write its reported A*0101 (binding information).
0.0260

---

# Subject of test: HLA-A*3101 (Homo sapiens, UniProt P04439, A270S/D185E/E176V/E277Q/F33T/G231S/G80R/H175R/I121M/I218V/I322F/K168Q/L300P/L318F/M331R/P217A/Q94H/R138Q/T323A/T345S/T97I/V358M)
# Assay info: HLA class I peptide binding assay
No end group written: not given here.
Observed property: pIC50
The scale used: pIC50 is minus the common logarithm of the concentration in molar units.

Given the sequence FILVNLLIFH [Peptide 1167.46] , write its reported pIC50.
5.71

---

# Subject of test: HLA-A*1101 (Homo sapiens, UniProt P04439, A114D/D185E/E176A/F33Y/L180Q/S129P/T187R)
# Assay info: HLA class I peptide binding assay
No end group written: not given here.
Observed property: pIC50
The scale used: pIC50 is minus the common logarithm of the concentration in molar units.

Fill: pIC50 (HLA-A*1101 (Homo sapiens, UniProt P04439, A114D/D185E/E176A/F33Y/L180Q/S129P/T187R)) for this sequence FILVNLLIFH [Peptide 1167.46]
5.88

---

# Subject of test: DRB1*0101 (DR1) (Homo sapiens, UniProt P01903+P01911, A100R/D57E/F55L/F60I/F76Y/I96L/L162R/M171V/P40L/Q125E/R42F/V115G/Y59C)
# Construct: endogenous in cells; host or cells: LG2
# Sequence (P01903 26-254 partner, other chains not shown): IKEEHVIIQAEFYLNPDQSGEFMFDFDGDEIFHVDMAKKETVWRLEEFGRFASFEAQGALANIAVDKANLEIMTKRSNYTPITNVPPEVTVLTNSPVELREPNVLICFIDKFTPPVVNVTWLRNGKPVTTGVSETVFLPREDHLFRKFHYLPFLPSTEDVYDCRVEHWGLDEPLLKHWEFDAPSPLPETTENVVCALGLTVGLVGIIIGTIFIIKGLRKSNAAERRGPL
# Assay info: HLA class II peptide binding assay
# Details: Table XIXb, Malaria Super Motif Peptides With Binding Data; DR1
Observed property: DR1 binding data
Lab note: record just the number, no unit beside it.

FYFILVNLL    0.0029
WDEWSPCSV    0.0001

Given the sequence LALFFIIFN , write its reported DR1 binding data.
0.0006

Given the sequence LTMSNVKNV , write its reported DR1 binding data.
0.0018

Given the sequence FDLFLVNGR , write its reported DR1 binding data.
0.0042

Given the sequence LATSVLAGL , write its reported DR1 binding data.
1.2000

Given the sequence IQNHTLETV , write its reported DR1 binding data.
0.0001

Given the sequence VEKTASCGV , write its reported DR1 binding data.
0.0004

Given the sequence LSTNLPYGR , write its reported DR1 binding data.
0.0012

Given the sequence LEEKAAKET , write its reported DR1 binding data.
0.0001

Given the sequence LTDGIPDSI , write its reported DR1 binding data.
0.0001

Given the sequence FQEYQCYGS , write its reported DR1 binding data.
0.0001

Given the sequence LGNVSTVLL , write its reported DR1 binding data.
0.0430

Given the sequence LETVNISDV , write its reported DR1 binding data.
0.0001

Given the sequence VHDLISDMI , write its reported DR1 binding data.
0.0130

Given the sequence VVPGAATPY , write its reported DR1 binding data.
0.1100

Given the sequence LHEGCTSEL , write its reported DR1 binding data.
0.0001

---

# Subject of test: DRB1*1302 (DR6w19) (Homo sapiens, UniProt P01903+P01911, A100E/A169T/K41T/L162R/M171V/P40S/Q125H/Q178H/Q39Y/Q99D/R42S/S66N/T262R/V115G/W38E/Y61H)
# Construct: endogenous in cells; host or cells: H0301
# Sequence (P01903 26-254, other chains not shown): as the sequence (P01903 26-254 partner, other chains not shown) above
# Assay info: HLA class II peptide binding assay
# Details: Table XIXb; DR6w19
Classification field. Basis: DR6w19 binding data. Definitions: I (below 0.0004), II (0.0004 to below 0.04), III (0.04 or more)

Would you please look over these solved cases?
VVPGAATPY    II
YQNNIVDEI    III
LIFFDLFLV    II

Field: next sequence
Record VSTVLLGGV — which class?
II

---

# Subject of test: DRB1*0405 (DR4w15) (Homo sapiens, UniProt P01903+P01911, A100R/A169T/D86S/F76Y/I96L/K127E/L162R/M171V/N62H/P40V/Q125Y/R42H/S133A/S149N/S66Y/V115G/V209L/W38E)
# Construct: endogenous in cells; host or cells: KT3
# Assay info: HLA class II peptide binding assay
# Details: Table XIXb; DR4w15
Documented DR4w15 binding data across a set of sequences

FQEYQCYGS    -0.0009
VHDLISDMI    0.0075
VNDFQISKY    -0.0014
VDLYLLMDC    -0.0009
WVNHAVPLA    0.0360
FYFILVNLL    -0.0009
LGGVGLVLY    -0.0009
LEEKAAKET    -0.0009

Given the sequence FMKAVCVEV , write its reported DR4w15 binding data.
0.0086

Given the sequence LAMKLIQQL , write its reported DR4w15 binding data.
0.0013

Given the sequence LATSVLAGL , write its reported DR4w15 binding data.
0.1200

---

Documented A*0301 (binding information) across a set of sequences
# Subject of test: HLA-A*0301 (Homo sapiens, UniProt P04439)
# Construct: endogenous in cells; host or cells: GM3107
# Assay info: HLA class I peptide binding assay
# Details: Table XVI, Malaria A3 motif peptides; binding value for HLA-A*0301, unit not given
Lab note: record just the number, no unit beside it.

LGGVGLVLY    0.0001
ALFFITFNIC    1.1000
VGLVLYNIEK    0.0005
DTKIMERK    0.0001
GTGSGVSSKX    0.0071

Fill: A*0301 (binding information) (HLA-A*0301 (Homo sapiens, UniProt P04439)) for this sequence VLYNIEKGRH
0.0029

Fill: A*0301 (binding information) (HLA-A*0301 (Homo sapiens, UniProt P04439)) for this sequence ESLAEKTNIC
0.0001

Fill: A*0301 (binding information) (HLA-A*0301 (Homo sapiens, UniProt P04439)) for this sequence ESLSEDITKY
0.0002

Fill: A*0301 (binding information) (HLA-A*0301 (Homo sapiens, UniProt P04439)) for this sequence DDIDEGIEK
0.0001

Fill: A*0301 (binding information) (HLA-A*0301 (Homo sapiens, UniProt P04439)) for this sequence KILSVFFLA
0.1400

Fill: A*0301 (binding information) (HLA-A*0301 (Homo sapiens, UniProt P04439)) for this sequence NIRVLNELNY
0.0005

Fill: A*0301 (binding information) (HLA-A*0301 (Homo sapiens, UniProt P04439)) for this sequence NTEKGFHPFK
0.0047

---

# Subject of test: DRB1*1201 (DR5w12) (Homo sapiens, UniProt P01903+P01911, A100R/A169T/D57E/D86V/F55L/H45Y/K41T/L162R/M171V/P40S/Q125H/Q178H/Q39Y/Q99D/R42G/S66L/T262R/V114A/V67L/W38E/Y59H/Y61H/Y89S)
# Construct: endogenous in cells; host or cells: Herluf
# Assay info: HLA class II peptide binding assay
# Details: DR3a motif peptides; unit not given; exemplary 15-mer containing the core sequence
Observed property: DR5w12 binding information
Lab note: record just the number, no unit beside it.

Reference set, count: 5
LLMDCSGSI    0.0001
VEVEKTASC    0.0001
ILTDGIPDS    0.0002
IVDELSEDI    0.0001
VWDEWSPCS    0.0001

In the following, a different sequence is considered.
Given the sequence INRENANQL , write its reported DR5w12 binding information.
0.0001

---

# Subject of test: HLA-A*0301 (Homo sapiens, UniProt P04439)
# Construct: endogenous in cells; host or cells: GM3107
# Assay info: HLA class I peptide binding assay
# Details: Malaria A03 supermotif peptides; binding value, no unit given
Mark t for reported A*301 (binding data) of 0.0002 or greater; mark f for anything smaller.

ICADIKKNLER    f
LLIFHINKGK    t
LALFFTIIFNK    t
FLKENKLNK    t

hey, is A*301 (binding data) for this one >= 0.0002? VLYNTEKGRS
t

hey, is A*301 (binding data) for this one >= 0.0002? DLERTICASK
f

hey, is A*301 (binding data) for this one >= 0.0002? DTKKKNLERKK
f
